experimentalDetails: glutamate transport activators, MN-1 cells, MN-1 cell line (AID 1612);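 also: 0% = mean of DMSO vehicle wells on each plate; positive means more glutamate uptake than control and negative means less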
runConditions: MN-1 motor neuron cells, stronger effect = higher value
Field: glutamate uptake change. Provide a value for each of the compounds that follow.
Write the answer as a number in %, unit excluded.

Name the recorded glutamate uptake change for "CN1CCN(CC(=O)N2c3ccccc3C(=O)Nc3cccnc32)CC1" . -10.6

Also "CCCCN(CCCC)CCCOC(=O)c1ccc(N)cc1" ? -0.54

Also "NC(=O)N/N=C/c1ccc([N+](=O)[O-])o1" ? 16.7

Also "O=C(O)c1cc(=O)c2ccccc2o1" ? 2.44

Also "CN1CCC(OC(c2ccccc2)c2ccccc2)CC1" ? 17.3

Also "CCCCC1C(=O)N(c2ccccc2)N(c2ccccc2)C1=O" ? -15.3

Also "CCCCOC(=O)c1ccc(N)cc1" ? 19.2

Also "Oc1c(Cl)cc(Cl)cc1Sc1cc(Cl)cc(Cl)c1O" ? -39

Also "CC1=C(C(=O)O)N2C(=O)[C@@H](NC(=O)[C@H](N)c3ccc(O)cc3)[C@H]2SC1" ? -6.33

Also "COc1cccc(OC)c1C(=O)N[C@@H]1C(=O)N2[C@@H]1SC(C)(C)[C@@H]2C(=O)O" ? 17.4

Also "Cn1c(=O)c2c(ncn2CCO)n(C)c1=O" ? 2.77

Also CCCCCCCCCCCCCCCCCCOCC(O)CO (stereo not given) ? 11.1

Also Cc1ccccc1N1C(=O)c2cc(S(N)(=O)=O)c(Cl)cc2NC1C (stereo not given) ? 2.13

Also "Cn1c(=O)c2c(ncn2C)n(C)c1=O" ? -3.95

Also "CC[N+](CC)(CC)CCOc1cccc(OCC[N+](CC)(CC)CC)c1OCC[N+](CC)(CC)CC" ? 40.5

Also "O=C(Cn1ccnc1[N+](=O)[O-])NCCO" ? 16.4

Also "NC(=O)c1ccccc1O" ? 8.07

Also "COc1ccc(C(=O)c2ccccc2)c(O)c1" ? 5.28

Also "CC1(C)S[C@@H]2[C@H](NC(=O)[C@H](N)c3ccccc3)C(=O)N2[C@H]1C(=O)O" ? -16.2

Also "CC1=C(C(=O)O)N2C(=O)[C@@H](NC(=O)[C@H](N)C3=CCC=CC3)[C@H]2SC1" ? -0.28

Also "O=C(N[C@H](CO)[C@H](O)c1ccc([N+](=O)[O-])cc1)C(Cl)Cl" ? 7.27

Also "O=C(O)P(=O)(O)O" ? -1.79

Also "CC(=O)Oc1ccccc1C(=O)O" ? 9.8

Also "CC(=O)Oc1cccc(O)c1" ? -3.14

Also "CCOc1ccc(NC(C)=O)cc1" ? -13.8

----------
Tested on: F380Y/beta1
experimentalDetails: BK channel mutant inhibitors and activators – cell-based, U2OS BacMam, thallium flux, beta subunits, selectivity assay, profiling panel (AID 1259406);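 also: initial slope of Thallos dye fluorescence rise after thallium is added; log ratio against the mean of 0.3% DMSO vehicle wells on the same plate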
runConditions: U2OS BacMam BK variants, at 30 µM
Threshold check on log fold change Tl+ flux: at or above -0.01 gives satisfied, strictly below gives not satisfied.

Could you tell me if the measured log fold change Tl+ flux of CNCC(O)c1ccc(O)c(O)c1 (stereo not given) reaches -0.01 or more? not satisfied

Also "Cn1c(NCCN(CCO)CCCc2ccc([N+](=O)[O-])cc2)cc(=O)n(C)c1=O" ? not satisfied

Also "C[C@@H]1C[C@H]2[C@@H]3C[C@H](F)C4=CC(=O)C(Cl)=C[C@]4(C)[C@@]3(F)[C@@H](O)C[C@]2(C)[C@@]1(O)C(=O)CO" ? satisfied

Also CC(c1cc2ccccc2s1)N(O)C(N)=O (stereo not given) ? satisfied

Also "CC(=O)Oc1ccccc1C(=O)Nc1ncc([N+](=O)[O-])s1" ? satisfied

Also "Cc1ccsc1C(=CCCN1CCC[C@@H](C(=O)O)C1)c1sccc1C" ? satisfied

Also "O=C(O)/C=C/c1ccc(Cn2ccnc2)cc1" ? satisfied

Also "COc1ccc(C(=O)NCc2ccc(OCCN(C)C)cc2)cc1OC" ? satisfied

Also "CCC(=O)O[C@]1(C(=O)SCF)[C@H](C)C[C@H]2[C@@H]3C[C@H](F)C4=CC(=O)C=C[C@]4(C)[C@@]3(F)[C@@H](O)C[C@@]21C" ? not satisfied

Also "CCc1oc2ccccc2c1C(=O)c1cc(Br)c(O)c(Br)c1" ? satisfied

Also "CCOC(=O)c1ncn2c1CN(C)C(=O)c1cc(F)ccc1-2" ? satisfied

Also "CC(C)c1nc(CN(C)C(=O)N[C@H](C(=O)N[C@@H](Cc2ccccc2)C[C@H](O)[C@H](Cc2ccccc2)NC(=O)OCc2cncs2)C(C)C)cs1" ? not satisfied

Also COC(=O)C1=C(C)NC(C)=C(C(=O)OCC(C)C)C1c1ccccc1[N+](=O)[O-] (stereo not given) ? satisfied

Also "Cn1nnc2c(C(N)=O)ncn2c1=O" ? not satisfied

Also "OCCOCCN1CCN(C2=Nc3ccccc3Sc3ccccc32)CC1" ? satisfied

----------
experimentalDetails: restoration of touch response, mutant HTT neurons – whole organism, C. elegans mechanosensory neurons, N-terminal huntingtin (AID 1599)
runConditions: C. elegans polyQ-huntingtin mechanosensory neurons, stronger effect = higher value
Results with a measured potency or affinity are listed apart.
measuredMetric: rescue above control
Returns: the value as a bare number; no unit string appended.

Name the recorded rescue above control for "Nc1ccc(S(=O)(=O)Nc2nccs2)cc1" . -1.24

Also "O=C(O)c1ccccc1OP(=O)(O)O" ? -8.86

Also "CN(C)[C@@H]1C(=O)C(C(N)=O)=C(O)[C@@]2(O)C(=O)C3=C(O)c4c(O)ccc(Cl)c4[C@@H](O)[C@H]3C[C@@H]12" ? 0

Also "S=P(N1CC1)(N1CC1)N1CC1" ? -0.95

Also CC1CCc2cc(F)cc3c(=O)c(C(=O)O)cn1c23 (stereo not given) ? -5.46

Also "NS(=O)(=O)c1cc(C(=O)O)c(NCc2ccco2)cc1Cl" ? -8.35

Also "C#CCN(C)Cc1ccccc1" ? 30.7

Also "CCN(CC)C(=O)c1cccc(C)c1" ? -4.11

Also "CCN(CC)CCNC(=O)c1cc(Br)c(N)cc1OC" ? 5.76

Also "Cc1ccc(C(C)C)cc2c(C)ccc1-2" ? 1.94

Also O=C(O)CCCCC1CCSS1 (stereo not given) ? 2.24

Also "NCCCC(=O)O" ? -4.87

Also "COc1cnc(NS(=O)(=O)c2ccc(N)cc2)nc1" ? -2.23

Also "CC[C@]12CCCN3CCc4c(n(c5ccccc45)C(=O)C1)[C@@H]32" ? 15.2

Also "COc1ccc(CN(CCN(C)C)c2ncccn2)cc1" ? 1.69

----------
assayedTarget: 6-phosphogluconate dehydrogenase, decarboxylating (Homo sapiens)
experimentalDetails: inhibition of human phosphogluconate dehydrogenase – biochemical, recombinant enzyme, NADPH absorbance, primary screen (AID 1159550)
runConditions: recombinant 6PGD, NADPH absorbance 341 nm; at 10 µM; stronger effect = higher value
measuredMetric: inhibition (%)
Write the answer as a number in %, unit excluded.

Name the recorded inhibition for "O=C(Nc1ccc([N+](=O)[O-])cc1Cl)c1cc(Cl)ccc1O" . 9.61

Also "O=C(O)c1cc(O)c(O)c(O)c1" ? 3.08

Also "O=c1[nH]cnc2nc[nH]c12" ? 4.21

Also "CO[C@@]1(NC(=O)CSCC#N)C(=O)N2C(C(=O)O)=C(CSc3nnnn3C)CS[C@@H]21" ? -6.33

Also "O=C1C(O)=C(O)C(=O)C(O)=C1O" ? 10.5

Also "CCOC(=O)n1ccn(C)c1=S" ? 2.95

Also "C/C=C/c1ccc(OC)cc1" ? 6.64

Also "Cc1ccc(C(C)C)cc2c(C)ccc1-2" ? -19.1

Also CN(C)CCOC(=O)C(c1ccccc1)C1(O)CCCC1 (stereo not given) ? -0.0978

Also "O=C(O)c1ccc(S(=O)(=O)N(Cl)Cl)cc1" ? 13.4

Also "CCC(=O)c1c(O)cc(O)cc1O" ? 8.94

Also "COc1ccc2cc3[n+](cc2c1OC)CCc1cc2c(cc1-3)OCO2" ? 10.3

Also CC(N)CCCC(C)(C)O (stereo not given) ? -2.18

Also "COc1cc(C(=O)NCc2ccc(OCCN(C)C)cc2)cc(OC)c1OC" ? 10.5

Also "NCCCCCC(=O)O" ? 11.8

Also "CCOC(=O)C1=C[C@]2(CC)CCCN3CCc4c(n1c1ccccc41)[C@@H]32" ? 13.5

Also "Oc1c(Cl)cc(Cl)cc1Sc1cc(Cl)cc(Cl)c1O" ? -6.91

Also "CN(C)[C@@H]1C(=O)C(C(N)=O)=C(O)[C@@]2(O)C(=O)C3=C(O)c4c(O)ccc(Cl)c4[C@@H](O)[C@H]3C[C@@H]12" ? 0.718

Also "Cc1cccc(N(C)C(=S)Oc2ccc3ccccc3c2)c1" ? 6.26

Also "CCCCCCc1ccc(O)cc1O" ? -8.5

----------
experimentalDetails: polyglutamine aggregate formation blockers (AID 1604)
runConditions: polyglutamine-induced protein aggregation inhibition assay; stronger effect = higher value; concentration not given here
Field: inhibition of aggregation. Provide a value for each of the molecules that follow.
Write the answer as a number in %, unit excluded.

Name the recorded inhibition of aggregation for CN1CCN2c3ccccc3Cc3ccccc3C2C1 (centres undefined) . 60.7

Also "Cc1cc(NC(=O)C2=C(O)c3ccccc3S(=O)(=O)N2C)no1" ? 72.2

Also "CC(=O)N[C@@H](CS)C(=O)O" ? 79.6

Also "COc1cc(NS(=O)(=O)c2ccc(N)cc2)ncn1" ? 88.9

Also "NCCCC(=O)O" ? 18.5

Also Nc1nc2c(c(=O)[nH]1)N(C=O)C(CNc1ccc(C(=O)N[C@@H](CCC(=O)O)C(=O)O)cc1)CN2 (some centres undefined) ? 35

Also NCC1CCC(C(=O)O)CC1 (centres undefined) ? 74.7

Also "CCOC(N)=O" ? 58.9

Also "OC[C@H]1O[C@@H](O[C@@H]2[C@@H](CO)O[C@](O)(CO)[C@H]2O)[C@H](O)[C@@H](O)[C@H]1O" ? 51.2

Taken from PubChem BioAssay.
